Field: Emax. Provide a value for each of the compounds that follow.
- system-under-test: Human CB1 receptor (Homo sapiens)
- Construct: purchased Receptor Biology
- test-summary: hCB1 GTPγS binding
- Type: biochemical
- condition-label: human CB1 membranes, GTPg35S binding; maximal stimulated binding with 10 μM Win 55,212-2
Answer format: numeric, % implied, no suffix.

The compound `Cc1ccc(C(=O)Nc2cccnc2C(=O)NCc2ccccn2)c2ccccc12` on Human CB1 receptor (Homo sapiens): Emax was 75

The compound `O=C(NCC1CCCCC1)c1ncccc1NC(=O)c1ccc(N2CCC2)c2ccccc12` on Human CB1 receptor (Homo sapiens): Emax was 71

The compound `O=C(NCC1CCOCC1)c1nccnc1NC(=O)c1cccc2ccccc12` on Human CB1 receptor (Homo sapiens): Emax was 112

The compound `O=C(NCC1CCCC1)c1ncccc1NC(=O)c1cccc2ccccc12` on Human CB1 receptor (Homo sapiens): Emax was 105

----------
- system-under-test: Human CB1 receptor (Homo sapiens, UniProt P21554)
- Construct: purchased Receptor Biology
- Sequence (P21554 whole entry): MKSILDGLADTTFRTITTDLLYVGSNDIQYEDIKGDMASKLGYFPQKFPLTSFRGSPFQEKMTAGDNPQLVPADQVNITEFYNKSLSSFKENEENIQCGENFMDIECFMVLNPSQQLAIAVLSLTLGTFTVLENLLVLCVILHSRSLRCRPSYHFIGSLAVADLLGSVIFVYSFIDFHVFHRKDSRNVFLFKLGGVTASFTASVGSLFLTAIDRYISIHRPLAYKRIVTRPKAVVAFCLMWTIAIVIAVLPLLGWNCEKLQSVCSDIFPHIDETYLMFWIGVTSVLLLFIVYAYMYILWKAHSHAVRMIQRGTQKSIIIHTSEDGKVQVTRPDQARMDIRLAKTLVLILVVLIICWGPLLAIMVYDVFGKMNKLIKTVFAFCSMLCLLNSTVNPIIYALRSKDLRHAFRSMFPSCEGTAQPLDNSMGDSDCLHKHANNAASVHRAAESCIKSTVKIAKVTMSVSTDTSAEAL
- test-summary: hCB1 GTPγS binding
- Type: biochemical
- condition-label: human CB1 membranes, GTPg35S binding; read-out: EC5O (hCB1)
measurement-kind: pEC50
The read-out pEC50 is expressed as -log10 of concentration in moles per litre.

pEC50 in this record for O=C(NCC1CCCC1)c1ncccc1NC(=O)c1cccc2ccccc12 [Example 13] : 7.34

pEC50 in this record for Cc1ccc(C(=O)Nc2cccnc2C(=O)NCc2ccccn2)c2ccccc12 [Example 80] : 5.91

pEC50 in this record for O=C(NCC1CCCCC1)c1ncccc1NC(=O)c1ccc(N2CCC2)c2ccccc12 [Example 171] : 6.66

pEC50 in this record for O=C(NCC1CCOCC1)c1nccnc1NC(=O)c1cccc2ccccc12 [Example 43] : 6.04

----------
Target or system Human CB1 receptor (Homo sapiens); recorded quantity pKi.
The read-out pKi is expressed as -log10 of concentration in moles per litre.

The molecule O=C(NCC1CCCC1)c1ncccc1NC(=O)c1cccc2ccccc12 [Example 13] on Human CB1 receptor (Homo sapiens): pKi was 7.92

The molecule O=C(NCC1CCCCC1)c1ncccc1NC(=O)c1ccc(N2CCC2)c2ccccc12 [Example 171] on Human CB1 receptor (Homo sapiens): pKi was 7.24

The molecule O=C(NCC1CCOCC1)c1nccnc1NC(=O)c1cccc2ccccc12 [Example 43] on Human CB1 receptor (Homo sapiens): pKi was 6.74

The molecule Cc1ccc(C(=O)Nc2cccnc2C(=O)NCc2ccccn2)c2ccccc12 [Example 80] on Human CB1 receptor (Homo sapiens): pKi was 6.66
